- System: Alzh mice
- protocol: Radial maze in animal model of Alzheimer's disease (Alzh mice)
- Type: in vivo
- experimental setup: animals with Alzheimer's disease, 20 mg/kg daily po, 3 months
recorded metric: Time to complete the radial maze exercise

1) CCC=CCC=CCC=CCC=CCC=CCCC(O)C(=O)[O-].[Na+] (stereo not shown) : 93 s
2) CCC=CCC=CCC=CCCCCCCC(O)C(=O)[O-].[Na+] (stereo not shown) : 98 s
3) CCC=CCC=CCC=CCC=CCC=CCCC(O)C(=O)O (stereo not shown) : 92 s
4) CCC=CCC=CCC=CCC=CCC=CCC=CCC(O)C(=O)O (stereo not shown) : 86 s

---

- Test system: α-synuclein
- protocol: Expression of α-synuclein in neuronal cultures (cells P19)
- Assay type: cell-based
- experimental setup: untreated cells 100%
recorded metric: Expression of α-synuclein (%)

1) CCC=CCC=CCC=CCCCCCCC(O)C(=O)[O-].[Na+] (centres unmarked) [183B1] : 43
2) CCCCCC=CCC=CCC=CCCCC(C)C(=O)[O-].[Na+] (centres unmarked) [183L2] : 73
3) CCC=CCC=CCC=CCC=CCC=CCCC(O)C(=O)O (centres unmarked) [205A1] : 35
4) CCCCCC=CCC=CCC=CCCCC(OC=O)C(=O)OCC (centres unmarked) [183V2] : 89
5) CCC=CCC=CCC=CCCCCCCC(O)C(=O)O (centres unmarked) [183A1, 2-hydroxy-9,12,15-octadecatrienoic acid] : 45
6) CCC=CCC=CCC=CCC=CCC=CCCC(OC=O)C(=O)OCC (centres unmarked) [205V1] : 81
7) CCC=CCC=CCC=CCC=CCC=CCC=CCC(O)C(=O)O (centres unmarked) [226A1] : 23
8) CCC=CCC=CCC=CCCCCCCC(C)C(=O)[O-].[Na+] (centres unmarked) [183L1] : 76
9) CCCCCC=CCC=CCC=CCC=CCCC(O)C(=O)O (centres unmarked) [204A1] : 41
10) CCCCCC=CCC=CCC=CCC=CCCC(OC=O)C(=O)OCC (centres unmarked) [204V1] : 82
11) CCC=CCC=CCC=CCC=CCC=CCCC(O)C(=O)OP(=O)(OCC)OCC (centres unmarked) [205F1] : 57
12) CCCCCC=CCC=CCC=CCCCC(O)C(=O)[O-].[Na+] (centres unmarked) [183B2] : 38
13) CCC=CCC=CCC=CCCCCCCC(OC=O)C(=O)OCC (centres unmarked) [183V1] : 87
14) CC/C=C\C/C=C\C/C=C\C/C=C\C/C=C\C/C=C\CC(O)C(=O)[O-].[Na+] (centres unmarked) [226B1] : 31
15) CCC=CCC=CCC=CCC=CCC=CCCC(O)C(=O)[O-].[Na+] (centres unmarked) [205B1] : 41
16) CCCCCC=CCC=CCC=CCCCC(O)C(=O)OP(=O)(OCC)OCC (centres unmarked) [183F2] : 52
17) CCCCCC=CCC=CCCCCCCC(C)C(=O)[O-].[Na+] (centres unmarked) [182L1] : 80
18) CCCCCC=CCC=CCC=CCC=CCCC(O)C(=O)[O-].[Na+] (centres unmarked) [204B1] : 36
19) CCCCCC=CCC=CCC=CCCCC(O)C(=O)O (centres unmarked) [183A2, 2-hydroxy-6,9,12-octadecatrienoic acid] : 40
20) CCCCCC=CCC=CCCCCCCC(O)C(=O)OP(=O)(OCC)OCC (centres unmarked) [182F1] : 71

---

- protocol: Serum cholesterol, triglycerides and glucose in SHR rats (colorimetric)
- Format: in vivo, rat
- experimental setup: 200 mg/kg daily p.o., 28 days, untreated rats 100%
recorded metric: Cholesterol in serum (top number) (%)

1. CCC=CCC=CCC=CCC=CCC=CCCC(O)C(=O)[O-].[Na+] (centres unmarked) : 58
2. CCCCCC=CCC=CCC=CCC=CCCC(O)C(=O)O (centres unmarked) : 72
3. CCCCCC=CCC=CCCCCCCC(O)C(=O)OP(=O)(OCC)OCC (centres unmarked) : 92
4. CCCCCC=CCC=CCC=CCCCC(O)C(=O)OP(=O)(OCC)OCC (centres unmarked) : 84
5. CCCCCC=CCC=CCC=CCCCC(O)C(=O)[O-].[Na+] (centres unmarked) : 77
6. CCC=CCC=CCC=CCC=CCC=CCCC(O)C(=O)O (centres unmarked) : 69
7. CCC=CCC=CCC=CCCCCCCC(O)C(=O)OP(=O)(OCC)OCC (centres unmarked) : 78
8. CCCCCC=CCC=CCCCCCCC(OC=O)C(=O)OCC (centres unmarked) : 94
9. CCCCCC=CCC=CCC=CCC=CCCC(O)C(=O)OP(=O)(OCC)OCC (centres unmarked) : 76
10. CCCCCC=CCC=CCC=CCCCC(O)C(=O)O (centres unmarked) [183A2, 2-hydroxy-6,9,12-octadecatrienoic acid] : 79
11. CC/C=C\C/C=C\C/C=C\C/C=C\C/C=C\C/C=C\CC(O)C(=O)[O-].[Na+] (centres unmarked) : 59
12. CCCCCC=CCC=CCCCCCCC(O)C(=O)[O-].[Na+] (centres unmarked) : 89
13. CCCCCC=CCC=CCC=CCC=CCCC(C)C(=O)OCC (centres unmarked) : 82
14. CCC=CCC=CCC=CCC=CCC=CCC=CCC(O)C(=O)O (centres unmarked) : 64
15. CCC=CCC=CCC=CCC=CCC=CCCC(C)C(=O)[O-].[Na+] (centres unmarked) : 79
16. CCCCCC=CCC=CCCCCCCC(C)C(=O)OCC (centres unmarked) : 92
17. CCCCCC=CCC=CCC=CCCCC(C)C(=O)[O-].[Na+] (centres unmarked) : 83
18. CCCCCC=CCC=CCC=CCC=CCCC(OC=O)C(=O)OCC (centres unmarked) : 84
19. CCC=CCC=CCC=CCCCCCCC(C)C(=O)[O-].[Na+] (centres unmarked) : 82
20. CCC=CCC=CCC=CCC=CCC=CCCC(O)C(=O)OP(=O)(OCC)OCC (centres unmarked) : 71
21. CCC=CCC=CCC=CCC=CCC=CCCC(C)C(=O)OCC (centres unmarked) : 80
22. CCCCCC=CCC=CCC=CCC=CCCC(O)C(=O)[O-].[Na+] (centres unmarked) : 71
23. CCCCCC=CCC=CCC=CCCCC(OC=O)C(=O)OCC (centres unmarked) : 84
24. CCC=CCC=CCC=CCCCCCCC(O)C(=O)O (centres unmarked) [183A1, 2-hydroxy-9,12,15-octadecatrienoic acid] : 76
25. CCC=CCC=CCC=CCCCCCCC(C)C(=O)OCC (centres unmarked) : 72
26. CCCCCC=CCC=CCC=CCCCC(C)C(=O)OCC (centres unmarked) : 89
27. CCCCCC=CCC=CCCCCCCC(C)C(=O)[O-].[Na+] (centres unmarked) : 89
28. CCCCCC=CCC=CCCCCCCC(O)C(=O)O (centres unmarked) [182A1, 2-hydroxy-9,12-octadecadienoic acid] : 78
29. CCC=CCC=CCC=CCC=CCC=CCCC(OC=O)C(=O)OCC (centres unmarked) : 85
30. CCC=CCC=CCC=CCCCCCCC(O)C(=O)[O-].[Na+] (centres unmarked) : 75
31. CCCCCC=CCC=CCC=CCC=CCCC(C)C(=O)[O-].[Na+] (centres unmarked) : 83
32. CCC=CCC=CCC=CCCCCCCC(OC=O)C(=O)OCC (centres unmarked) : 75

---

- Test system: HepG2 cells
- protocol: Liver cancer (HepG2 cells)
- Assay type: cell-based
- experimental setup: 72 hours
pIC50: −log10 of the molar value.
recorded metric: pIC50

1. CCC=CCC=CCC=CCC=CCC=CCC=CCC(O)C(=O)O (stereo not shown) : 3.79

---

- Test system: brain cancer cell (glioma) U118
- protocol: Brain cancer (glioma) U118 cell growth
- Type: cell-based
- experimental setup: 72 hours of incubation
- Procedure: For the experiments shown in FIG. 1, cultured human Non Small Cell Lung Cancer cells (A549) in RPMI 1640 were used, supplemented with 10% foetal bovine serum and antibiotics, at 37° C. and 5% CO2. Cells were maintained in culture for 48 hours in the presence or absence of D-PUFAs and PUFAs indicated in Table 2 at a concentration of 250 µM. After treatment, cell count was performed and the study of the mechanisms involved in the antitumor activity of compounds was evaluated by flow cytometry. […]
pIC50: −log10 of the molar value.
Each entry below carries its reported pIC50.
recorded metric: pIC50

1. CCCCCC=CCC=CCC=CCC=CCCC(OC=O)C(=O)OC (stereo not drawn) [204U1] : 3.58
2. CCCCCC=CCC=CCCCCCCC(OC)C(=O)OCC (stereo not drawn) [182I1] : 3.62
3. CCC=CCC=CCC=CCC=CCC=CCCC(C)C(=O)OCC (stereo not drawn) [205N1] : 3.29
4. CCCCCC=CCC=CCCCCCCC(O)C(=O)O (stereo not drawn) [182C1] : 3.68
5. CCC=CCC=CCC=CCCCCCCC(OC=O)C(=O)OCC (stereo not drawn) [183V1] : 3.56
6. CCCCCC=CCC=CCC=CCCCC(C)C(=O)[O-].[Na+] (stereo not drawn) [183L2] : 3.34
7. CCC=CCC=CCC=CCCCCCCC(CO)C(=O)O (stereo not drawn) [183P1] : 3.55
8. CCCCCC=CCC=CCC=CCC=CCCC(C(=O)OCC)N(OCC)OCC (stereo not drawn) [204W1] : 3.54
9. CCCCCC=CCC=CCCCCCCC(O)C(=O)OC (stereo not drawn) [182D1] : 3.66
10. CCC=CCC=CCC=CCC=CCC=CCCC(O)C(=O)OP(=O)(OCC)OCC (stereo not drawn) [205F1] : 3.30
11. CCC=CCC=CCC=CCC=CCC=CCC=CCC(OC)C(=O)O (stereo not drawn) [226G1] : 3.56
12. CCC=CCC=CCC=CCCCCCCC(OC)C(=O)OCC (stereo not drawn) [183I1] : 3.49
13. CCCCCC=CCC=CCC=CCC=CCCC(O)C(=O)[O-].[Na+] (stereo not drawn) [204B1] : 3.40
14. CCCCCC=CCC=CCC=CCCCC(O)C(=O)[O-].[Na+] (stereo not drawn) [183B2] : 3.42
15. CCCCCC=CCC=CCCCCCCC(C)C(=O)OCC (stereo not drawn) [182N1] : 3.61
16. CCCCCC=CCC=CCC=CCC=CCCC(F)C(=O)OCC (stereo not drawn) [204T1] : 3.41
17. CCCCCC=CCC=CCC=CCCCC(OC)C(=O)O (stereo not drawn) [183G2] : 3.40
18. CCC=CCC=CCC=CCC=CCC=CCCC(CO)C(=O)OCC (stereo not drawn) [205Q1] : 3.38
19. CCCCCC=CCC=CCC=CCC=CCCC(CO)C(=O)O (stereo not drawn) [204P1] : 3.54
20. CCCCCC=CCC=CCC=CCCCC(OC=O)C(=O)OC (stereo not drawn) [183U2] : 3.42
21. CCC=CCC=CCC=CCCCCCCC(C)C(=O)OCC (stereo not drawn) [183N1] : 3.49
22. CCC=CCC=CCC=CCC=CCC=CCCC(O)C(=O)OC (stereo not drawn) [205D1] : 3.33
23. CCC=CCC=CCC=CCC=CCC=CCCC(O)C(=O)O (stereo not drawn) [205C1] : 3.35
24. CCC=CCC=CCC=CCCCCCCC(O)C(=O)[O-].[Na+] (stereo not drawn) [183B1] : 3.69
25. CCCCCC=CCC=CCCCCCCC(OC=O)C(=O)OCC (stereo not drawn) [182V1] : 3.64
26. CCCCCC=CCC=CCC=CCCCC(O)C(=O)O (stereo not drawn) [183A2, 2-hydroxy-6,9,12-octadecatrienoic acid] : 3.43
27. CCC=CCC=CCC=CCC=CCC=CCCC(OC=O)C(=O)OCC (stereo not drawn) [205V1] : 3.29
